# TESTED_SYSTEM: human D2L dopamine receptors (Homo sapiens, UniProt P14416)
# Construct: expressed in transfected cells; host or cells: insect Sf9 cells (membranes)
# Sequence (P14416 whole entry): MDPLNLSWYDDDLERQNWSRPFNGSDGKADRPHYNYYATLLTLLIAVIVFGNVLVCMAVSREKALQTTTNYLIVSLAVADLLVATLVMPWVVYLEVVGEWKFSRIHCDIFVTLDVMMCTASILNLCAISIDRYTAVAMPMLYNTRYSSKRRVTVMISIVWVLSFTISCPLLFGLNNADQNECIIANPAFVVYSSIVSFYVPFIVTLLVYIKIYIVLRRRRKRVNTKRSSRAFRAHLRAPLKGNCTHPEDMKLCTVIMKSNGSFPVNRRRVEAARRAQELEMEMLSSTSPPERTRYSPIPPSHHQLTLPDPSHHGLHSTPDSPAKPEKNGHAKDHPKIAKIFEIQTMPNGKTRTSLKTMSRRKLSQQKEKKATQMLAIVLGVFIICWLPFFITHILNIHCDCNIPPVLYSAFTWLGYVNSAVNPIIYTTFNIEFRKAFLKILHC
# PROTOCOL_SUMMARY: hD2L receptor radioligand binding ([3H]spiperone)
# COND: pKi reported on a scale of 1 through 5; read-out: D2L (pKi) (converted)
# Description: Consistent with standard competition radioligand binding assays, the methodology was based on displacement of radioligand from tissues (or cell lines) bearing the receptor of interest (Cheng, Y. and Prusoff, W. H. (1973). Biochem. Pharmacol. 22, 3099-3108). The measurements were based on the binding of a single concentration of radiolabeled ligand in the presence of various concentrations of unlabeled ligand. […]
MEASURE_NAME: Ki

Recorded Ki, per entry:
O=C(C[C@H]1CN(C2=Nc3cc(Cl)ccc3Oc3ccccc32)CCN1)N1CCC[C@H]1C(F)(F)F: 631 to 2450 nM
O=C(O)C[C@H]1CN(C2=Nc3cc(Cl)ccc3Oc3ccccc32)CCN1: > 10000 nM
O=C(C[C@H]1CN(C2=Nc3cc(Cl)ccc3Oc3ccccc32)CCN1)NCC(F)F: 631 to 2450 nM
CN1CCN(C2=Nc3cc(Cl)ccc3Oc3ccccc32)C[C@@H]1CC(=O)OC1CCCC1: 2510 to 9770 nM

Consider the record given below.
Could you share which Ki value was measured for "O=C(C[C@H]1CN(C2=Nc3cc(Cl)ccc3Oc3ccccc32)CCN1)OC1CCCC1" ?
631 to 2450 nM

====

# TESTED_SYSTEM: human D2L dopamine receptors (Homo sapiens, UniProt P14416)
# Construct: expressed in transfected cells; host or cells: insect Sf9 cells (membranes)
# PROTOCOL_SUMMARY: hD2L receptor radioligand binding ([3H]spiperone)
# COND: pKi reported on a scale of 1 through 5; read-out: D2L (pKi) (converted)
# Text: Consistent with standard competition radioligand binding assays, the methodology was based on displacement of radioligand from tissues (or cell lines) bearing the receptor of interest (Cheng, Y. and Prusoff, W. H. (1973). Biochem. Pharmacol. 22, 3099-3108). The measurements were based on the binding of a single concentration of radiolabeled ligand in the presence of various concentrations of unlabeled ligand. […]
MEASURE_NAME: Ki

Recorded Ki, per entry:
CCOC(=O)CC1CN(C2=Nc3ccc(Cl)cc3Oc3ccccc32)CCN1 (stereo not drawn): 631 to 2450 nM
CCOC(=O)C[C@H]1CN(C2=Nc3cc(Cl)ccc3Oc3ccccc32)CCN1: 631 to 2450 nM
O=C(C[C@H]1CN(C2=Nc3cc(Cl)ccc3Oc3ccccc32)CCN1)NCC(O)C(F)(F)F (stereo partly drawn): 2510 to 9770 nM

Could you share which Ki value was measured for "O=C(C[C@H]1CN(C2=Nc3cc(Cl)ccc3Oc3ccccc32)CCN1)OC1CCOCC1" ?
2510 to 9770 nM

====

Reported pKi values for a set of compounds
# TESTED_SYSTEM: human 5HT1A receptors (Homo sapiens)
# Sequence (P08908 1-422): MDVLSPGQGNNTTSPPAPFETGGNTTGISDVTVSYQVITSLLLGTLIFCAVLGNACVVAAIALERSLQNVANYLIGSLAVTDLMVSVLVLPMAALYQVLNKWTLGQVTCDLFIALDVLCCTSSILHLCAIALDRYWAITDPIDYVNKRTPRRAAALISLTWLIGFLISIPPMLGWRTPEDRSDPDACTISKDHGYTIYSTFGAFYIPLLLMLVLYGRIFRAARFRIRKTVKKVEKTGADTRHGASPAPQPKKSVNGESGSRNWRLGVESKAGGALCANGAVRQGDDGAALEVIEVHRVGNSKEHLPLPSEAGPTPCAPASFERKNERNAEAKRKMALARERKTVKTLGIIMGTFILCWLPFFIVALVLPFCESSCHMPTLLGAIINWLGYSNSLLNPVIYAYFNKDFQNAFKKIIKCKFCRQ
pKi: −log10 of the molar value.

Recorded pKi, per entry:
CCOC(=O)C[C@@H]1CN(C2=Nc3cc(Cl)ccc3Oc3ccccc32)CCN1: 6.01 to 7.00
O=C(C[C@H]1CN(C2=Nc3cc(Cl)ccc3Oc3ccccc32)CCN1)NCCO: 7.01 to 8.00
CC(C)OC(=O)CC1CN(C2=Nc3cc(Cl)ccc3Oc3ccccc32)CCN1 (stereo not drawn): 6.01 to 7.00
CC(C)(CO)NC(=O)C[C@H]1CN(C2=Nc3cc(Cl)ccc3Oc3ccccc32)CCN1: 7.01 to 8.00
COCCNC(=O)C[C@H]1CN(C2=Nc3cc(Cl)ccc3Oc3ccccc32)CCN1CCO: 5.01 to 6.00
O=C(O)C[C@H]1CN(C2=Nc3cc(Cl)ccc3Oc3ccccc32)CCN1: 6.01 to 7.00

Could you share which pKi value was measured for "O=C(O)C[C@@H]1CN(C2=Nc3cc(Cl)ccc3Oc3ccccc32)CCN1" ?
< 5.00

Could you share which pKi value was measured for "CN1CCN(C2=Nc3cc(Cl)ccc3Oc3ccccc32)C[C@@H]1CC(=O)OC1CCCC1" ?
5.01 to 6.00

Could you share which pKi value was measured for "COCCCNC(=O)C[C@H]1CN(C2=Nc3cc(Cl)ccc3Oc3ccccc32)CCN1" ?
7.01 to 8.00

====

Heads up, these compounds all have Ki values measured for human M1 receptors (Homo sapiens, UniProt P11229).

Recorded Ki, per entry:
COC(=O)CC1CN(C2=Nc3cc(Cl)ccc3Oc3ccccc32)CCN1 (stereo not drawn): 5.01 to 9.77 µM
CCOC(=O)C[C@H]1CN(C2=Nc3cc(Cl)ccc3Oc3ccccc32)CCN1CCC(C)C: > 10 µM
CN1CCN(C2=Nc3cc(Cl)ccc3Oc3ccccc32)C[C@@H]1CC(=O)OC1CCCC1: 5.01 to 9.77 µM
COC(C)(C)CCOC(=O)C[C@H]1CN(C2=Nc3cc(Cl)ccc3Oc3ccccc32)CCN1: 5.01 to 9.77 µM
O=C(C[C@H]1CN(C2=Nc3cc(Cl)ccc3Oc3ccccc32)CCN1)O[C@H]1CN2CCC1CC2: 5.01 to 9.77 µM

Quick check: Ki on human M1 receptors (Homo sapiens, UniProt P11229), item CC(C)CNC(=O)CC1CN(C2=Nc3cc(Cl)ccc3Oc3ccccc32)CCN1 (stereo not drawn) ?
> 10 µM

Quick check: Ki on human M1 receptors (Homo sapiens, UniProt P11229), item "O=C(C[C@H]1CN(C2=Nc3cc(Cl)ccc3Oc3ccccc32)CCN1)O[C@H]1CCOC1" ?
5.01 to 9.77 µM

Quick check: Ki on human M1 receptors (Homo sapiens, UniProt P11229), item "O=C(C[C@H]1CN(C2=Nc3cc(Cl)ccc3Oc3ccccc32)CCN1)OC1CCOCC1" ?
> 10 µM

Quick check: Ki on human M1 receptors (Homo sapiens, UniProt P11229), item "O=C(C[C@H]1CN(C2=Nc3cc(Cl)ccc3Oc3ccccc32)CCN1)N1CC[C@@H](O)C1" ?
2.51 to 4.9 µM

====

Target chain: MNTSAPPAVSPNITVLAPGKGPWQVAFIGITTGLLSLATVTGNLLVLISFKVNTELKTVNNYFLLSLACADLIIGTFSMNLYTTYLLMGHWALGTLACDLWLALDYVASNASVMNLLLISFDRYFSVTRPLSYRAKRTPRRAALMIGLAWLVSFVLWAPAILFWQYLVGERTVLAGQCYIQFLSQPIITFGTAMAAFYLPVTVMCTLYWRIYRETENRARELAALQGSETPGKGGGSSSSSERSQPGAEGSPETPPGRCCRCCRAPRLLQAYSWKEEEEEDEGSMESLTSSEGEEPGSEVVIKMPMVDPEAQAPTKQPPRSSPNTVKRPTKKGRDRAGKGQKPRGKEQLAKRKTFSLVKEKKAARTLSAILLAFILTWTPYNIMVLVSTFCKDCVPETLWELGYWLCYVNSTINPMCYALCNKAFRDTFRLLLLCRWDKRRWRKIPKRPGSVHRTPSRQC
pKi: −log10 of the molar value.
MEASURE_NAME: pKi

Recorded pKi, per entry:
COC(=O)C[C@H]1CN(C2=Nc3cc(Cl)ccc3Oc3ccccc32)CCN1: 5.01 to 5.30
O=C(C[C@H]1CN(C2=Nc3cc(Cl)ccc3Oc3ccccc32)CCN1)NCC(O)C(F)(F)F (stereo partly drawn): < 5.00

Could you share which pKi value was measured for CCC(C)OC(=O)C[C@H]1CN(C2=Nc3cc(Cl)ccc3Oc3ccccc32)CCN1C (stereo partly drawn) ?
< 5.00

Could you share which pKi value was measured for "O=C(C[C@H]1CN(C2=Nc3cc(Cl)ccc3Oc3ccccc32)CCN1)NCCCO" ?
< 5.00

Could you share which pKi value was measured for CC(C)OC(=O)CC1CN(C2=Nc3cc(Cl)ccc3Oc3ccccc32)CCN1 (stereo not drawn) ?
< 5.00

Could you share which pKi value was measured for "CCOC(=O)C[C@H]1CN(C2=Nc3cc(Cl)ccc3Oc3ccccc32)CCN1" ?
< 5.00

Could you share which pKi value was measured for CCOC(=O)CC1CN(C2=Nc3ccc(Cl)cc3Oc3ccccc32)CCN1 (stereo not drawn) ?
< 5.00

Could you share which pKi value was measured for "CC(C)(C)COC(=O)C[C@H]1CN(C2=Nc3cc(Cl)ccc3Oc3ccccc32)CCN1" ?
5.61 to 5.90
